# SYSTEM: T1, biotinylated hBLyS-ECD (human, UniProt Q9Y275 134-285, biotinylated with Biotin-X-X-NHS (molar ratio 7:1); sites not stated)
# T1 construct: also called biotinylated immunogen; biotinylated hBLvS-ECD
# T1 sequence (Q9Y275 134-285): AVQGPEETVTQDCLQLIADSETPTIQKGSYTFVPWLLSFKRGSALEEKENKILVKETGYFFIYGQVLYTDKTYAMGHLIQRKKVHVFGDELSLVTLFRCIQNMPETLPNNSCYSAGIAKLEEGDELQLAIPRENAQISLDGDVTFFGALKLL
# ASSAY REMARKS: BAFF R-coated ELISA, biotinylated hBLyS-ECD bound in presence of antibody 0.0064 nM
TEST READOUT: OD450 nm

INSERT INTO results (binder, endpoint_value) VALUES
  ('c97A3C2H4 (antibody, V domains shown, also called chimeric antibody c97A3C2H4) VH: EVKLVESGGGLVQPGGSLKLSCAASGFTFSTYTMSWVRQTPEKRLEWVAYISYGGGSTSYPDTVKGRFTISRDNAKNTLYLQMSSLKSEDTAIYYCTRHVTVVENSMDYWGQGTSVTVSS VL: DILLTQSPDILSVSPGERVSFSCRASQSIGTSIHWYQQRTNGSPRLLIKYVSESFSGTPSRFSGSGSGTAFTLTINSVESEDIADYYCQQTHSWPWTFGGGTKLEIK', '1.96 OD450 nm');
